These measurements were taken from PubChem BioAssay AID179.

- System: CEM cells HIV-1 protection, formazan growth assay
- assay_comment: NCI AIDS Antiviral Assay;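 active = compounds giving half or more protection of infected cells from virus-caused growth loss, again on retest; inactive = the rest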
- Method: The ability of compounds to protect human CEM cells from HIV-1 infection is measured as a screen for new compounds capable of inhibiting the HIV virus. Five concentrations of drug were tested on uninfected and infected cells and cell growth was measured using a soluble formazan assay. […] Compounds that provided at least 50% protection were retested. Compounds that provided at least 50% protection on retest were listed as moderately active. […]
Field 'call' accepts active, inactive

Query :: Please share the test call associated with COc1ccccc1NC(=O)/C(=C/C1CC(=O)NC1=S)C(C)=O (stereo unspecified) .
Result :: inactive

Query :: Please share the test call associated with `C(=Nc1cnc2ccccc2c1)c1ccnc2ccccc12` .
Result :: inactive

Query :: Please share the test call associated with `CC1=CC(=O)c2cccc(NC3=NCCO3)c21` .
Result :: inactive

Query :: Please share the test call associated with `NNS(=O)(=O)c1ccc(/C=C2\NC(=O)NC2=O)cc1` .
Result :: inactive

Query :: Please share the test call associated with `CC(C)c1cccc(C(C)C)c1NC(=O)C(=O)Cc1nc2ccc([N+](=O)[O-])cc2[nH]c1=O` .
Result :: inactive

Query :: Please share the test call associated with CN1C(=O)c2ccccc2C(C(=O)O)C1c1ccc2c(c1)OCO2 (stereo unspecified) .
Result :: inactive

Query :: Please share the test call associated with `CC1=C(C)CC2(CC1)C(=O)NC(=O)NC2=O` .
Result :: inactive

Query :: Please share the test call associated with `COP(=O)(OC)C(=O)c1ccccc1` .
Result :: inactive

Query :: Please share the test call associated with S=C(NC1=NCC(CN2CCN(c3ccccc3)CC2)O1)Nc1ccccc1 (stereo unspecified) .
Result :: inactive

Query :: Please share the test call associated with `O=C(CC(=O)c1ccc(Cl)cc1)Cc1ccc2ccccc2n1` .
Result :: inactive

Query :: Please share the test call associated with `CC1=C(c2cc(C(=O)Nc3cc(C)ccc3C)nc(N)n2)Sc2ccccc2N1` .
Result :: inactive

Query :: Please share the test call associated with `O=c1c2ccccc2oc2c1ccc1ncccc12` .
Result :: inactive

Query :: Please share the test call associated with `O=C(O)c1cc(O)c(Br)c(O)c1N=Nc1ccc(/C=C/c2ccc(N=Nc3c(C(=O)O)cc(O)c(Br)c3O)cc2S(=O)(=O)O)c(S(=O)(=O)O)c1` .
Result :: active

Query :: Please share the test call associated with COC(=O)C(Cc1nc2ccc(Cl)cc2[nH]c1=O)/C(=N/O)C(=O)Nc1cccc(Cl)c1C (stereo unspecified) .
Result :: inactive

Query :: Please share the test call associated with COC(=O)/C(=N\NC(N)=O)C(C(=O)C(=O)Nc1ccccc1OC)c1nc2ccc([N+](=O)[O-])cc2[nH]c1=O (stereo unspecified) .
Result :: inactive

Query :: Please share the test call associated with `CN(Cc1ccccc1)C(=NC#N)N(C)Cc1ccccc1` .
Result :: inactive

Query :: Please share the test call associated with `O=C1NNC(=O)c2ccccc2SSc2ccccc2C(=O)NNC(=O)c2ccccc2SSc2ccccc21` .
Result :: active

Query :: Please share the test call associated with COc1cc2c(c(Cl)c1OC)CCN(C)CC2c1ccccc1 (stereo unspecified) .
Result :: inactive

Query :: Please share the test call associated with `Cc1ccc2nc(-c3ccc(N=Nc4cc(S(=O)(=O)O)c5ccccc5c4O)cc3)sc2c1S(=O)(=O)O` .
Result :: inactive

Query :: Please share the test call associated with `CS(=O)(=O)OCCNC[C@@H](O)[C@@H](O)CNCCOS(C)(=O)=O` .
Result :: inactive

Query :: Please share the test call associated with `CC(=O)[CH-]C(=O)c1ccccc1.CC(=O)[CH-]C(=O)c1ccccc1.CC(=O)[CH-]C(=O)c1ccccc1.[Tl+3]` .
Result :: inactive
